From: BigSolDB 2.1

Settings: in isopropanol, 310.75 K
quantity.kind: solubility (mole fraction)
// response body must contain only the number

Task: State the recorded solubility (mole fraction) for this entry: COP(=O)(NC(C)=O)SC (stereo unspecified)
Result: 0.118

----------
Conditions: in isopropanol, 299.3 K
quantity.kind: solubility (mole fraction)

Task: State the recorded solubility (mole fraction) for this entry: COP(=O)(NC(C)=O)SC (stereo unspecified)
Result: 0.0606

----------
Details: in dichloromethane, 295.2 K
quantity.kind: solubility (mole fraction)
// response body must contain only the number

Task: State the recorded solubility (mole fraction) for this entry: COP(=O)(NC(C)=O)SC (stereo unspecified)
Result: 0.19
